- Tested On: T1, 4H687-bA
- T1 chain: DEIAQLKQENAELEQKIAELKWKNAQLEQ
- Experiment Summary: two-hybrid library CCNG1;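 further: natural log of median RNA to DNA barcode read ratio; higher means stronger binding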
Recorded measurements of interaction score, one per entry
Give the figure only, with no unit attached.

Study these solved cases before continuing.
{"columns": ["Binder", "interaction score"],
 "data": [
  ["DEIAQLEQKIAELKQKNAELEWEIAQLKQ [4H370-bA]", -0.346],
  ["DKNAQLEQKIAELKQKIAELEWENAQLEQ [4H3427-bA]", -1.79],
  ["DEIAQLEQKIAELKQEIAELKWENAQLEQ [4H331-bA]", -0.899]
]}

# context switch: different binder, same interaction score
[in] // query interaction score value for entry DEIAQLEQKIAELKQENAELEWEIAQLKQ [4H338-bA]
[out] -1.18
